- measurement-target: 5-hydroxytryptamine receptor 1A (Bos taurus)
- experiment-summary: Binding affinity against 5-hydroxytryptamine 1A receptor was measured using [3H]8-OH-DPAT as radioligand
experimental-endpoint: IC50

>>> result_value("C=CCN1CCN(c2nc3cccnc3n3cccc23)CC1")
"0.117 µM"
>>> result_value("Fc1ccc(CN2CCN(c3nc4cc(Cl)ccc4n4cccc34)CC2)cc1")
"40.7 µM"
>>> result_value("Cc1ccnc2c1nc(N1CCN(Cc3ccccc3)CC1)c1cccn12")
"50.1 µM"
>>> result_value("Cc1ccc2c(c1)nc(N1CCN(Cc3ccc(F)cc3)CC1)c1cccn12")
"12.9 µM"
>>> result_value("Fc1ccc(CN2CCN(c3nc4cccnc4n4cccc34)CC2)cc1")
"6.76 µM"
>>> result_value("c1ccc(CN2CCN(c3ccc4nc(N5CCN(Cc6ccccc6)CC5)c5cccn5c4n3)CC2)cc1")
"> 100 µM"

src = ChEMBL document CHEMBL1130056
